# Assay: Induction of 3.3 mM glucose-stimulated insulin secretion in NMRI mouse pancreatic islets at 10^-8 M pretreated for 72 hrs in presence of 11.1 mM glucose followed by 3.3 mM glucose stimulation after 60 mins by radioimmunoassay
# Format: cell-based
# Protocol conditions: pancreatic islet, 1 h, 0.01 µM
Readout name: Activity

O=C(/C=C/c1ccc(O)c(O)c1)O[C@@H](C(=O)O)[C@@H](O)C(=O)O = Non-Toxic
O=C(O)/C=C/c1ccc(O)c(O)c1 = Non-Toxic
O=C(/C=C/c1ccc(O)c(O)c1)O[C@@H](C(=O)O)[C@@H](OC(=O)/C=C/c1ccc(O)c(O)c1)C(=O)O = Non-Toxic
O=c1cc(-c2ccc(O)cc2)oc2c([C@@H]3O[C@H](CO)[C@@H](O)[C@H](O)[C@H]3O)c(O)c([C@@H]3O[C@H](CO)[C@@H](O)[C@H](O)[C@H]3O)c(O)c12 = Non-Toxic

Now look at this entry.
Task: Data request, read-out Activity, for O=C(/C=C/c1ccc(O)c(O)c1)O[C@H](Cc1ccc(O)c(O)c1)C(=O)O
Output: Non-Toxic
